// provenance: ChEMBL document CHEMBL1781921

target: CDK9/cyclin T1 (Homo sapiens); experiment: Inhibition of human recombinant CDK9/cyclin T expressed in insect cells assessed as incorporation of [gamma-33P]-ATP in to pRB fragment (773 to 928) substrate after 30 mins by scintillation counting
Sequence (O60563 whole entry, the tested form may be a part): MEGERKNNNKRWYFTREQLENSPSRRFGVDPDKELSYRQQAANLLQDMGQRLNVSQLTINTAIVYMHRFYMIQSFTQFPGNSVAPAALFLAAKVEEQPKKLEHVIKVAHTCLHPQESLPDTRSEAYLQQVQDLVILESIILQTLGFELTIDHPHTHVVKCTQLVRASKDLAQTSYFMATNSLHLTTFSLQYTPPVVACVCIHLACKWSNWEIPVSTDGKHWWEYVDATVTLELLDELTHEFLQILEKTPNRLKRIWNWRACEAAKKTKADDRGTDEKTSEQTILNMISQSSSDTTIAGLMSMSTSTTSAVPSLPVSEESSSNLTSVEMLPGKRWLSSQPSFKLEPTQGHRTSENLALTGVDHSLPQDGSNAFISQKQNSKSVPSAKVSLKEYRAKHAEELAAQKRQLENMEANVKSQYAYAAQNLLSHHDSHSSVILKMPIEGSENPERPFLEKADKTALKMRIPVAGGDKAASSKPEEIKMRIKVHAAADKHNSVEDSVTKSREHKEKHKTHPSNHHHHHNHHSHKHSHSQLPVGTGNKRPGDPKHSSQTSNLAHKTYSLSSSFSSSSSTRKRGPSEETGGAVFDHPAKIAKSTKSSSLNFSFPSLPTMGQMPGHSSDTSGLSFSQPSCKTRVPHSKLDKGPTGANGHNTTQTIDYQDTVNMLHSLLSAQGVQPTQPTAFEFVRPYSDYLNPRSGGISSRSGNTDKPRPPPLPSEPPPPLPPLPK
Sequence (P50750 whole entry, the tested form may be a part): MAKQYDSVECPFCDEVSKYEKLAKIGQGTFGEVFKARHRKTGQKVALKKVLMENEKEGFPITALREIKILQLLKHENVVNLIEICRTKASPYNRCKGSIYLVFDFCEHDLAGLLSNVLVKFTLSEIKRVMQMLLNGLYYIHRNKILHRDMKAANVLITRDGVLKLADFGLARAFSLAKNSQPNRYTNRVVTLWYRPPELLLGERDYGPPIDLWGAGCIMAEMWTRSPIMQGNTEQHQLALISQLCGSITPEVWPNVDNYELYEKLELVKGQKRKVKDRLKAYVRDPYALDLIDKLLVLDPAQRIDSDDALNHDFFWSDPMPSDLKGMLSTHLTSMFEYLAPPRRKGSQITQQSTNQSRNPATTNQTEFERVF
Threshold check on IC50: strictly below 200 nM is met; on or above 200 nM is not met.

Does this molecule meet the criterion IC50 < 200 nM? O=C1Cc2c([nH]c3cc[n+]([O-])cc23)-c2ccccc2N1
not met

Lab note: IC50 threshold 200 nM. Does this molecule come in strictly under it? O=C1Cc2c([nH]c3ccncc23)-c2ccccc2N1
not met

IC50 strictly < 200 nM for this molecule? O=C1Cc2c([nH]c3cc[n+](Cc4ccccc4)cc23)-c2ccccc2N1
not met

Quick check: does O=C1Cc2c([nH]c3ccc(Br)cc23)-c2ccccc2N1 have IC50 under 200 nM?
met

Please let me know if O=C1Cc2c([nH]c3ccccc23)-c2ccccc2N1 shows IC50 below 200 nM.
not met
